The origin of these recorded values is ChEMBL document CHEMBL2177095.

# assay_comment: Inhibition of Streptococcus pneumoniae thymidylate kinase assessed as effect on conversion of dTDP to dTMP by luciferin/luciferase reporter gene based assay
pIC50: −log10 of the molar value.
Hi, to clarify the labels: Met covers pIC50 from 9 upward, Not met covers anything below 9.

[[record]]
cpd_smiles = "CCC(C)(CC)C[C@H](c1ccc(C(=O)O)c(Oc2cccc(Br)c2)c1)N1CCC[C@H](n2cc(C)c(=O)[nH]c2=O)C1"
assigned_class = "Met"

[[record]]
cpd_smiles = "Cc1cn([C@H]2CCCN(Cc3cccc(Oc4cccc(F)c4)c3)C2)c(=O)[nH]c1=O"
assigned_class = "Not met"

[[record]]
cpd_smiles = "Cc1cn([C@H]2CCCN([C@H](CC3CCCCC3)c3ccc(C(=O)O)c(Oc4cccc(Cl)c4)c3)C2)c(=O)[nH]c1=O"
assigned_class = "Met"

[[record]]
cpd_smiles = "Cc1cn([C@H]2CCCN([C@H](CC(C)(C)C)c3ccc(C(=O)O)c(Oc4cccc(Br)c4)c3)C2)c(=O)[nH]c1=O"
assigned_class = "Met"

[[record]]
cpd_smiles = "Cc1ccc(Oc2cccc(CN3CCC[C@H](n4cc(C)c(=O)[nH]c4=O)C3)c2)cc1Cl"
assigned_class = "Not met"

[[record]]
cpd_smiles = "Cc1cn([C@H]2CCCN([C@H](CC(C)C)c3ccc(C(=O)O)c(Oc4cccc(Cl)c4)c3)C2)c(=O)[nH]c1=O"
assigned_class = "Met"

[[record]]
cpd_smiles = "CCCC(C)(C)C[C@H](c1ccc(C(=O)O)c(Oc2cccc(Cl)c2)c1)N1CCC[C@H](n2cc(C)c(=O)[nH]c2=O)C1"
assigned_class = "Met"


---

# System: Streptococcus pneumoniae
# assay_comment: Antimicrobial activity against Streptococcus pneumoniae by broth microdilution method
# Format: functional
Listed below: MIC values for each entry.
measurement_type: MIC (µg/mL)

[[record]]
compound = "Cc1cn([C@H]2CCCN([C@H](CC3CCCCC3)c3ccc(C(=O)O)c(Oc4cccc(Cl)c4)c3)C2)c(=O)[nH]c1=O"
value_unit = "µg/mL"
recorded_result = 0.01

[[record]]
compound = "Cc1cn([C@H]2CCCN([C@@H](CC(C)(C)C)c3ccc(C(=O)O)c(Oc4cccc(Br)c4)c3)C2)c(=O)[nH]c1=O"
value_unit = "µg/mL"
recorded_result = 0.03

[[record]]
compound = "Cc1cn([C@H]2CCCN(Cc3ccc(C(=O)O)c(Oc4cccc(Br)c4)c3)C2)c(=O)[nH]c1=O"
value_unit = "µg/mL"
recorded_result = 1

[[record]]
compound = "CCCCC[C@H](c1ccc(C(=O)O)c(Oc2cccc(Br)c2)c1)N1CCC[C@H](n2cc(C)c(=O)[nH]c2=O)C1"
value_unit = "µg/mL"
recorded_result = 0.01

[[record]]
compound = "Cc1cn([C@H]2CCCN([C@@H](C)c3ccc(C(=O)O)c(Oc4cccc(Cl)c4)c3)C2)c(=O)[nH]c1=O"
value_unit = "µg/mL"
recorded_result = 0.25

[[record]]
compound = "Cc1cn([C@H]2CCCN([C@H](CC34CC5CC(CC(C5)C3)C4)c3ccc(C(=O)O)c(Oc4cccc(Br)c4)c3)C2)c(=O)[nH]c1=O"
value_unit = "µg/mL"
recorded_result = 0.03

[[record]]
compound = "CCC(CC)C[C@H](c1ccc(C(=O)O)c(Oc2cccc(Cl)c2)c1)N1CCC[C@H](n2cc(C)c(=O)[nH]c2=O)C1"
value_unit = "µg/mL"
recorded_result = 0.02

[[record]]
compound = "Cc1cn([C@H]2CCCN([C@H](C)c3ccc(C(=O)O)c(Oc4cccc(Cl)c4)c3)C2)c(=O)[nH]c1=O"
value_unit = "µg/mL"
recorded_result = 0.1

[[record]]
compound = "Cc1cn([C@H]2CCCN([C@H](CC(C)(C)C)c3ccc(C(=O)O)c(Oc4cccc(Br)c4)c3)C2)c(=O)[nH]c1=O"
value_unit = "µg/mL"
recorded_result = 0.02

[[record]]
compound = "Cc1cn([C@H]2CCCN(Cc3ccc(C(=O)O)c(Oc4cccc(C(F)(F)F)c4)c3)C2)c(=O)[nH]c1=O"
value_unit = "µg/mL"
recorded_result = 4

[[record]]
compound = "CCC(C)(C)C[C@H](c1ccc(C(=O)O)c(Oc2cccc(Cl)c2)c1)N1CCC[C@H](n2cc(C)c(=O)[nH]c2=O)C1"
value_unit = "µg/mL"
recorded_result = 0.05

[[record]]
compound = "Cc1cn([C@H]2CCCN([C@H](CC3CCOCC3)c3ccc(C(=O)O)c(Oc4cccc(Cl)c4)c3)C2)c(=O)[nH]c1=O"
value_unit = "µg/mL"
recorded_result = 0.1

[[record]]
compound = "CCC[C@@H](c1ccc(C(=O)O)c(Oc2cccc(Cl)c2)c1)N1CCC[C@H](n2cc(C)c(=O)[nH]c2=O)C1"
value_unit = "µg/mL"
recorded_result = 0.1

[[record]]
compound = "Cc1cn([C@H]2CCCN(Cc3ccc(C(=O)O)c(Oc4cccc(Cl)c4)c3)C2)c(=O)[nH]c1=O"
value_unit = "µg/mL"
recorded_result = 1

[[record]]
compound = "Cc1cn([C@H]2CCCN([C@H](CC(C)C)c3ccc(C(=O)O)c(Oc4cccc(Cl)c4)c3)C2)c(=O)[nH]c1=O"
value_unit = "µg/mL"
recorded_result = 0.03

[[record]]
compound = "CCCC(C)(C)C[C@H](c1ccc(C(=O)O)c(Oc2cccc(Cl)c2)c1)N1CCC[C@H](n2cc(C)c(=O)[nH]c2=O)C1"
value_unit = "µg/mL"
recorded_result = 0.06

[[record]]
compound = "Cc1cn([C@H]2CCCN([C@@H](CC(C)C)c3ccc(C(=O)O)c(Oc4cccc(Cl)c4)c3)C2)c(=O)[nH]c1=O"
value_unit = "µg/mL"
recorded_result = 0.05

[[record]]
compound = "CC[C@@H](c1ccc(C(=O)O)c(Oc2cccc(Cl)c2)c1)N1CCC[C@H](n2cc(C)c(=O)[nH]c2=O)C1"
value_unit = "µg/mL"
recorded_result = 0.25

[[record]]
compound = "CCC[C@H](c1ccc(C(=O)O)c(Oc2cccc(Cl)c2)c1)N1CCC[C@H](n2cc(C)c(=O)[nH]c2=O)C1"
value_unit = "µg/mL"
recorded_result = 0.05

[[record]]
compound = "Cc1cccc(Oc2cc(CN3CCC[C@H](n4cc(C)c(=O)[nH]c4=O)C3)ccc2C(=O)O)c1"
value_unit = "µg/mL"
recorded_result = 4

[[record]]
compound = "CCC(C)(CC)C[C@H](c1ccc(C(=O)O)c(Oc2cccc(Br)c2)c1)N1CCC[C@H](n2cc(C)c(=O)[nH]c2=O)C1"
value_unit = "µg/mL"
recorded_result = 0.03

[[record]]
compound = "CC[C@H](c1ccc(C(=O)O)c(Oc2cccc(Cl)c2)c1)N1CCC[C@H](n2cc(C)c(=O)[nH]c2=O)C1 (racemic)"
value_unit = "µg/mL"
recorded_result = 0.1

[[record]]
compound = "Cc1cn([C@H]2CCCN(Cc3ccc(C(=O)O)c(Oc4cccc(F)c4)c3)C2)c(=O)[nH]c1=O"
value_unit = "µg/mL"
recorded_result = 32

